# Test system: AGS
# MEASUREMENT NOTES: CellTiter-Glo Reagent cancer cell line proliferation assay, AGS
# Format: cell-based, human
# DETAILS: Homo sapiens, 24 h, KRAS(G12D) heterozygous
List of IC50 values.

Below: 8 compounds and their reported IC50.
>>> reported_result("C#Cc1c(F)ccc2cc(O)cc(-c3ncc4c(N5CCCOC6CC65)nc(OCC5(CN6CCN(CC7CCN(c8ccc9c(c8)CN(C8CCC(=O)NC8=O)C9=O)CC7)CC6)CC5)nc4c3F)c12 (stereo not drawn) [Compound 139]")
"> 1000 nM"
>>> reported_result("C#Cc1cccc2cc(O)cc(-c3ncc4c(N5CC6CCC(C5)N6)nc(OCC5(CN6CCN(CC7CCN(c8ccc9c(c8)n(C)c(=O)n9C8CCC(=O)NC8=O)CC7)CC6)CC5)nc4c3F)c12 (stereo not drawn) [Compound 64]")
"< 100 nM"
>>> reported_result("[2H]C([2H])([2H])Oc1nc(-c2cc(O)cc3ccc(F)c(C#C)c23)c(F)c2nc(OCC3(CN4CCN(CC5CCN(c6ccc7c(c6)CN(C6CCC(=O)NC6=O)C7=O)CC5)CC4)CC3)nc(N3CC4CCC(C3)N4C(=O)C(C)CC#N)c12 (stereo not drawn) [Compound 116]")
"100 to 1000 nM"
>>> reported_result("C#Cc1c(F)ccc2cc(O)cc(-c3nc(OC)c4c(N5CCN(C(=O)CC#N)[C@@H](CC#N)C5)nc(OCC5(CN6CCN(CC7CCN(c8ccc9c(c8)CN(C8CCC(=O)NC8=O)C9=O)CC7)CC6)CC5)nc4c3F)c12 (stereo partly drawn) [Compound 104]")
"> 1000 nM"
>>> reported_result("COc1nc(-c2cc(O)cc3ccccc23)c(F)c2nc(OCC3(CN4CCN(CC5CCN(c6ccc7c(c6)C(=O)N(C6CCC(=O)NC6=O)C7=O)CC5)CC4)CC3)nc(C3CC4CCC(C3)N4)c12 (stereo not drawn) [Compound 36]")
"100 to 1000 nM"
>>> reported_result("[2H]C([2H])([2H])Oc1nc(-c2cc(O)cc3ccc(F)c(C#C)c23)c(F)c2nc(OCC3(CN4CCN(CC5CCN(c6ccc7c(c6)CN(C6CCC(=O)NC6=O)C7=O)CC5)CC4)CC3)nc(N3CC4CCC(C3)N4CC(C)C)c12 (stereo not drawn) [Compound 96]")
"> 1000 nM"
>>> reported_result("C#Cc1c(F)ccc2cc(O)cc(-c3nc(OC)c4c(N5CC6CCC(C5)N6C(=O)NCC#N)nc(OCC5(CN6CCN(CC7CCN(c8ccc9c(c8)CN(C8CCC(=O)NC8=O)C9=O)CC7)CC6)CC5)nc4c3F)c12 (stereo not drawn) [Compound 122]")
"< 100 nM"
>>> reported_result("C#Cc1c(F)ccc2cc(O)cc(-c3nc(OC)c4c(N5CCCOC6CC65)nc(OCC5(CN6CCN(CC7CCN(c8ccc9c(c8)CN(C8CCC(=O)NC8=O)C9=O)CC7)CC6)CC5)nc4c3F)c12 (stereo not drawn) [Compound 157]")
"< 100 nM"

Lab note: C#Cc1c(F)ccc2cc(O)cc(-c3nc(OC)c4c(N5CC6CCC(C5)N6C(=O)C(F)(F)F)nc(OCC5(CN6CCC(CN7CCN(c8ccc9c(c8)CN(C8CCC(=O)NC8=O)C9=O)CC7)CC6)CC5)nc4c3F)c12 (stereo not drawn) [Compound 63] gave IC50 of < 100 nM
